Test system: NIH-3T3/Gli reporter cells (Hedgehog signal, Gli reporter luciferase; Smo inhibitory action)
Test: Gli reporter luciferase assay in NIH-3T3/Gli reporter cells stimulated with mouse Shh-N end fragment
Assay type: cell-based
Settings: NIH3T3; 1 μM compound; NIH-3T3/Gli reporter cells with mouse Shh-N end fragment culture supernatant, 48 hr; luciferase activity, control without compound as 100; read-out: inhibition rate (%) at 1 μM
property measured: inhibition at 1 µM (%)
Numbers only here, please. The scale is %.

- compound: "CCc1cc2c(c(OC(C)C)c(C(=O)NC3CCN(C(=O)CO)CC3)n2C)c(=O)n1-c1ccc(C(F)(F)F)cc1 [Example 11]"
  inhibition at 1 µM (%): 96
- compound: "CCc1cc2c(c(OCC(F)(F)F)c(C(=O)NC3CCN(C(=O)CO)CC3)n2C)c(=O)n1-c1ccc(C(F)(F)F)cc1 [Example 9]"
  inhibition at 1 µM (%): 97

stdin: Provide measured inhibition at 1 µM value, entry: CCOc1c(C(=O)NC2CCN(C(=O)CO)CC2)n(C)c2cc(CC)n(-c3ccc(OC)cc3)c(=O)c12 [Example 13]
stdout: 97

stdin: Check the records and state inhibition at 1 µM for CCc1cc2c(c(OC(C)C)c(C(=O)NC3CCN(C(=O)CO)CC3)n2C)c(=O)n1-c1ccc(F)cc1 [Example 22]
stdout: 97

stdin: Retrieve inhibition at 1 µM measured for CCc1cc2c(c(OCC(F)(F)F)c(C(=O)NC3CCN(C(=O)CO)CC3)n2C)c(=O)n1-c1ccc(OC)cc1 [Example 12] and print it.
stdout: 97

stdin: Respond only with inhibition at 1 µM recorded for CCOc1c(C(=O)NC2CCN(C(=O)CO)CC2)n(C)c2cc(CC)n(-c3ccc(C(F)(F)F)cc3)c(=O)c12 [Example 10]
stdout: 96

stdin: Provide inhibition at 1 µM value for the following compound: CCOc1c(C(=O)NC2CCN(C(=O)CO)CC2)n(C)c2cc(CC)n(-c3cccc(F)c3)c(=O)c12 [Example 16]
stdout: 96

----------
// values below are reported inhibition at 1 µM
System: NIH-3T3/Gli reporter cells (Hedgehog signal, Gli reporter luciferase; Smo inhibitory action)
Test: Gli reporter luciferase assay in NIH-3T3/Gli reporter cells stimulated with mouse Shh-N end fragment
Type: cell-based
Conditions: NIH3T3; 1 μM compound; NIH-3T3/Gli reporter cells with mouse Shh-N end fragment culture supernatant, 48 hr; luciferase activity, control without compound as 100; read-out: inhibition rate (%) at 1 μM
For clarity, give the value followed by its unit.

- test smiles: "CCc1cc2c(c(OC(C)C)c(C(=O)NC3CCN(C(=O)CO)CC3)n2C)c(=O)n1-c1cccc(F)c1"
  inhibition at 1 µM: "95%"
- test smiles: "CCc1cc2c(c(OCC(F)(F)F)c(C(=O)NC3CCN(C(=O)CO)CC3)n2C)c(=O)n1-c1cccc(F)c1"
  inhibition at 1 µM: "99%"
- test smiles: "CCc1cc2c(c(OCC(F)(F)F)c(C(=O)NC3CCN(C(=O)CO)CC3)n2C)c(=O)n1-c1ccccc1"
  inhibition at 1 µM: "98%"
- test smiles: "Cc1ccc(-n2c(C)cc3c(c(OCC(F)(F)F)c(C(=O)NC4CCN(C(=O)CO)CC4)n3C)c2=O)cc1"
  inhibition at 1 µM: "97%"
- test smiles: "CCc1cc2c(c(OC(C)C)c(C(=O)NC3CCN(C(=O)CO)CC3)n2C)c(=O)n1-c1ccccc1"
  inhibition at 1 µM: "97%"
- test smiles: "CCOc1c(C(=O)NC2CCN(C(=O)CO)CC2)n(C)c2cc(CC)n(-c3ccc(F)cc3)c(=O)c12"
  inhibition at 1 µM: "96%"
- test smiles: "CCc1cc2c(c(OC(C)C)c(C(=O)NC3CCN(C(=O)CO)CC3)n2C)c(=O)n1-c1ccc(OC)cc1"
  inhibition at 1 µM: "96%"
- test smiles: "CCc1cc2c(c(OCC(F)(F)F)c(C(=O)NC3CCN(C(=O)CO)CC3)n2C)c(=O)n1-c1ccc(F)cc1"
  inhibition at 1 µM: "96%"

// below: inhibition at 1 µM requested for another compound
stdin: Identify measured inhibition at 1 µM associated with "CCOc1c(C(=O)NC2CCN(C(=O)CO)CC2)n(C)c2cc(CC)n(-c3ccccc3)c(=O)c12"
stdout: 97%
